experiment: Relative phenolic and PAH contents of mainstream TPM by GC/MS (FTC smoking, 3rd and 4th puffs); details: change of relative content in mainstream TPM, tobacco treated with acetate salt alone
HQ reference
Please give a number only; it is taken to be in %.

In the examples that follow, each entry is paired with its recorded HQ.
Molecule | Value reported
CC(=O)[O-].CC(=O)[O-].CC(=O)[O-].O.[Lu+3] | −49
CC(=O)[O-].CC(=O)[O-].CC(=O)[O-].O.[Eu+3] | −39
CC(=O)[O-].CC(=O)[O-].CC(=O)[O-].[La+3] | −60

Switching to the query record.
[ask] State its HQ for this molecule: `CC(=O)[O-].CC(=O)[O-].CC(=O)[O-].O.[Ce+3]`
[reply] −23

* * *

tested on: TPM cytotoxicity; assay: TPM cytotoxicity, Neutral Red Uptake; type: cell-based; settings: change of TPM cytotoxicity; tobacco treated with acetate salt alone; FTC, 3rd and 4th puffs
Recorded metric: Cytotoxicity

[ask] Please report the measured Cytotoxicity for `CC(=O)[O-].CC(=O)[O-].CC(=O)[O-].[La+3]` tested on TPM cytotoxicity.
[reply] −25%

* * *

system: TPM mutagenicity; experiment: TPM mutagenicity, Ames assays; assay type: cell-based; details: change of TPM mutagenicity; tobacco treated with acetate salt alone; FTC, 3rd and 4th puffs
Recorded metric: Mutagenicity (%)
Please give a number only; it is taken to be in %.

Molecule | Value reported
CC(=O)[O-].CC(=O)[O-].CC(=O)[O-].[La+3] | −46

Switching to the query record.
[ask] State its Mutagenicity for this compound: `CC(=O)[O-].CC(=O)[O-].CC(=O)[O-].O.[Eu+3]`
[reply] −21
